This collection of values is drawn from PubChem BioAssay AID1919006.

Tested on: 885512-296-R-J2-PDC complex spheroid growth, % test/control
method description: Anticancer human tumor 885512-296-R-J2-PDC patient-derived breast carcinoma cell line growth inhibition [AhR]; active means viability on the fitted dose curve at most 10% of control; inactive means the rest
condition label: second compound 0.1 µM; first compound 0.1 µM
Labels: 1 (active), -1 (inactive)

molecule	group label
CC(C)c1c(-c2ccccc2)nc2c(C#N)c[nH]n2c1=O + Cc1cncc(-c2nc(NCCc3c[nH]c4ccccc34)c3ncn(C(C)C)c3n2)c1	-1
COc1ccc([C@@H](O)c2cc(-c3ncnc4cc(N5CCOCC5)ccc34)c(F)cc2Cl)nn1 + CC(CO)NC(=O)c1cc(-c2ccc(Cl)cc2)nn(-c2cnn(C)c2)c1=O	-1
CC1(C)CCC(CN2CCN(c3ccc(C(=O)NS(=O)(=O)c4ccc(NCC5CCOCC5)c([N+](=O)[O-])c4)c(Oc4cnc5[nH]ccc5c4)c3)CC2)=C(c2ccc(Cl)cc2)C1 + Cc1cncc(-c2nc(NCCc3c[nH]c4ccccc34)c3ncn(C(C)C)c3n2)c1	-1
COc1ccc([C@@H](O)c2cc(-c3ncnc4cc(N5CCOCC5)ccc34)c(F)cc2Cl)nn1 + Cc1ccccc1N=Nc1ccc(NC(=O)c2ccnn2C)c(C)c1	-1
NS(=O)(=O)OCC1CC(n2ccc3c(NC4CCc5ccccc54)ncnc32)CC1O (stereo not given) + CC(CO)NC(=O)c1cc(-c2ccc(Cl)cc2)nn(-c2cnn(C)c2)c1=O	-1
Nc1ccccc1NC(=O)c1ccc(CNC(=O)OCc2cccnc2)cc1 + CC(CO)NC(=O)c1cc(-c2ccc(Cl)cc2)nn(-c2cnn(C)c2)c1=O	-1
COc1cccc2c1C(=O)c1c(O)c3c(c(O)c1C2=O)CC(O)(C(=O)CO)CC3OC1CC(N)C(O)C(C)O1 (stereo not given) + CC(CO)NC(=O)c1cc(-c2ccc(Cl)cc2)nn(-c2cnn(C)c2)c1=O	-1
O=C(c1cc(Cc2n[nH]c(=O)c3ccccc23)ccc1F)N1CCN(C(=O)C2CC2)CC1 + CC(CO)NC(=O)c1cc(-c2ccc(Cl)cc2)nn(-c2cnn(C)c2)c1=O	-1
Nc1ccn(C2OC(CO)C(O)C2(F)F)c(=O)n1 (stereo not given) + CC(CO)NC(=O)c1cc(-c2ccc(Cl)cc2)nn(-c2cnn(C)c2)c1=O	1
CC1COCCN1c1cc(C2(S(C)(=N)=O)CC2)nc(-c2ccnc3[nH]ccc23)n1 (stereo not given) + Cc1ccccc1N=Nc1ccc(NC(=O)c2ccnn2C)c(C)c1	-1

###

Tested on: 885512-296-R-J2-PDC complex spheroid growth, % test/control
method description: Anticancer human tumor 885512-296-R-J2-PDC cell line growth inhibition [AhR];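 further: spheroids exposed to compounds for seven days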
condition label: second compound 3.16 µM; first compound 0.01 µM; stronger effect = lower value
Excerpt: Multicellular complex tumor spheroid response to aryl hydrocarbon receptor antagonists in combination with a variety of drugs and investigational agents in selected tumor cell lines […] Compounds. […] If the clinical Cmax for an agent had not been determined, the highest concentration tested was 10 microM (Table 1). […]

molecule	viability, T/C / %
Nc1ncn(C2CC(O)C(CO)O2)c(=O)n1 (stereo not given) + CC(CO)NC(=O)c1cc(-c2ccc(Cl)cc2)nn(-c2cnn(C)c2)c1=O	95
CC1COCCN1c1cc(-c2ccnn2C)c2ccnc(-c3ccn[nH]3)c2n1 (stereo not given) + Cc1cncc(-c2nc(NCCc3c[nH]c4ccccc34)c3ncn(C(C)C)c3n2)c1	50.1
CC1COCCN1c1cc(-c2ccnn2C)c2ccnc(-c3ccn[nH]3)c2n1 (stereo not given) + Cc1ccccc1N=Nc1ccc(NC(=O)c2ccnn2C)c(C)c1	86.3
Nc1ncn(C2CC(O)C(CO)O2)c(=O)n1 (stereo not given) + Cc1cncc(-c2nc(NCCc3c[nH]c4ccccc34)c3ncn(C(C)C)c3n2)c1	68.5
Cn1ncnc1C1c2n[nH]c(=O)c3cc(F)cc(c23)NC1c1ccc(F)cc1 (stereo not given) + CC(CO)NC(=O)c1cc(-c2ccc(Cl)cc2)nn(-c2cnn(C)c2)c1=O	82.9

###

System: 885512-296-R-J2-PDC complex spheroid growth, % test/control
method description: Anticancer human tumor 885512-296-R-J2-PDC cell line growth inhibition [AhR]; active means viability on the fitted dose curve at most 10% of control; inactive means the rest;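 further: spheroids exposed to compounds for seven days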
condition label: second compound 0.1 µM; first compound 0.1 µM
Outcomes: class 1 for active, class 0 for inactive

compound	group label
CC(C)c1c(-c2ccccc2)nc2c(C#N)c[nH]n2c1=O + Cc1ccccc1N=Nc1ccc(NC(=O)c2ccnn2C)c(C)c1	class 0
CC1COCCN1c1cc(-c2ccnn2C)c2ccnc(-c3ccn[nH]3)c2n1 (configuration not stated) + Cc1cncc(-c2nc(NCCc3c[nH]c4ccccc34)c3ncn(C(C)C)c3n2)c1	class 0
Cn1ncnc1C1c2n[nH]c(=O)c3cc(F)cc(c23)NC1c1ccc(F)cc1 (configuration not stated) + Cc1cncc(-c2nc(NCCc3c[nH]c4ccccc34)c3ncn(C(C)C)c3n2)c1	class 0
CC(C)c1c(-c2ccccc2)nc2c(C#N)c[nH]n2c1=O + CC(CO)NC(=O)c1cc(-c2ccc(Cl)cc2)nn(-c2cnn(C)c2)c1=O	class 0
Cn1ncnc1C1c2n[nH]c(=O)c3cc(F)cc(c23)NC1c1ccc(F)cc1 (configuration not stated) + Cc1ccccc1N=Nc1ccc(NC(=O)c2ccnn2C)c(C)c1	class 0
COc1cccc2c1C(=O)c1c(O)c3c(c(O)c1C2=O)CC(O)(C(=O)CO)CC3OC1CC(N)C(O)C(C)O1 (configuration not stated) + Cc1ccccc1N=Nc1ccc(NC(=O)c2ccnn2C)c(C)c1	class 1
COc1cc(Nc2ncc3c(n2)-c2ccc(Cl)cc2C(c2c(F)cccc2OC)=NC3)ccc1C(=O)O + Cc1cncc(-c2nc(NCCc3c[nH]c4ccccc34)c3ncn(C(C)C)c3n2)c1	class 0

###

System: 885512-296-R-J2-PDC complex spheroid growth, % test/control
method description: Anticancer human tumor 885512-296-R-J2-PDC cell line growth inhibition [AhR];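 further: spheroids exposed to compounds for seven days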
condition label: second compound 3.16 µM; first compound 3.16 µM; stronger effect = lower value
observable: viability, T/C (%)

molecule	unit text	reported
COc1ccc([C@@H](O)c2cc(-c3ncnc4cc(N5CCOCC5)ccc34)c(F)cc2Cl)nn1 + CC(CO)NC(=O)c1cc(-c2ccc(Cl)cc2)nn(-c2cnn(C)c2)c1=O	%	68.6
COc1ccc([C@@H](O)c2cc(-c3ncnc4cc(N5CCOCC5)ccc34)c(F)cc2Cl)nn1 + Cc1ccccc1N=Nc1ccc(NC(=O)c2ccnn2C)c(C)c1	%	66.4
CC(C)c1c(-c2ccccc2)nc2c(C#N)c[nH]n2c1=O + Cc1cncc(-c2nc(NCCc3c[nH]c4ccccc34)c3ncn(C(C)C)c3n2)c1	%	60.5
Nc1ccccc1NC(=O)c1ccc(CNC(=O)OCc2cccnc2)cc1 + CC(CO)NC(=O)c1cc(-c2ccc(Cl)cc2)nn(-c2cnn(C)c2)c1=O	%	31.4
Nc1ccccc1NC(=O)c1ccc(CNC(=O)OCc2cccnc2)cc1 + Cc1cncc(-c2nc(NCCc3c[nH]c4ccccc34)c3ncn(C(C)C)c3n2)c1	%	25.1
CC1(C)CCC(CN2CCN(c3ccc(C(=O)NS(=O)(=O)c4ccc(NCC5CCOCC5)c([N+](=O)[O-])c4)c(Oc4cnc5[nH]ccc5c4)c3)CC2)=C(c2ccc(Cl)cc2)C1 + Cc1ccccc1N=Nc1ccc(NC(=O)c2ccnn2C)c(C)c1	%	48.3
CC(C)c1c(-c2ccccc2)nc2c(C#N)c[nH]n2c1=O + CC(CO)NC(=O)c1cc(-c2ccc(Cl)cc2)nn(-c2cnn(C)c2)c1=O	%	105

###

System: 885512-296-R-J2-PDC complex spheroid growth, % test/control
method description: Anticancer human tumor 885512-296-R-J2-PDC cell line growth inhibition [AhR];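 further: spheroids exposed to compounds for seven days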
condition label: curve of first compound; second compound 3.16 µM
observable: IC50

compound	observable	reported
O=C(C=Cc1cccc(S(=O)(=O)Nc2ccccc2)c1)NO + Cc1ccccc1N=Nc1ccc(NC(=O)c2ccnn2C)c(C)c1	IC50	773 nM
CC(C)CC(NC(=O)C(Cc1ccccc1)NC(=O)c1cnccn1)B(O)O (stereo not given) + CC(CO)NC(=O)c1cc(-c2ccc(Cl)cc2)nn(-c2cnn(C)c2)c1=O	IC50	5.42 nM
CC(C)CC(NC(=O)C(Cc1ccccc1)NC(=O)c1cnccn1)B(O)O (stereo not given) + Cc1cncc(-c2nc(NCCc3c[nH]c4ccccc34)c3ncn(C(C)C)c3n2)c1	IC50	3.63 nM
O=C(c1cc(Cc2n[nH]c(=O)c3ccccc23)ccc1F)N1CCN(C(=O)C2CC2)CC1 + Cc1ccccc1N=Nc1ccc(NC(=O)c2ccnn2C)c(C)c1	IC50	4790 nM
COc1cc(C2c3cc4c(cc3C(OC3OC5COC(C)OC5C(O)C3O)C3COC(=O)C23)OCO4)cc(OC)c1O (stereo not given) + Cc1cncc(-c2nc(NCCc3c[nH]c4ccccc34)c3ncn(C(C)C)c3n2)c1	IC50	170 nM

###

Below, each entry is listed with its recorded viability, T/C.
Tested on: 885512-296-R-J2-PDC complex spheroid growth, % test/control
method description: Anticancer human tumor 885512-296-R-J2-PDC cell line growth inhibition [AhR];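 further: spheroids exposed to compounds for seven days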
condition label: second compound 10 µM; first compound 0.1 µM; stronger effect = lower value
observable: viability, T/C (%)

molecule	unit text	reported
CC(C)c1c(-c2ccccc2)nc2c(C#N)c[nH]n2c1=O + Cc1ccccc1N=Nc1ccc(NC(=O)c2ccnn2C)c(C)c1	%	50.8
COc1cc(C2c3cc4c(cc3C(OC3OC5COC(C)OC5C(O)C3O)C3COC(=O)C23)OCO4)cc(OC)c1O (stereo not given) + CC(CO)NC(=O)c1cc(-c2ccc(Cl)cc2)nn(-c2cnn(C)c2)c1=O	%	89.1
COc1ccc([C@@H](O)c2cc(-c3ncnc4cc(N5CCOCC5)ccc34)c(F)cc2Cl)nn1 + Cc1cncc(-c2nc(NCCc3c[nH]c4ccccc34)c3ncn(C(C)C)c3n2)c1	%	15.5
CC1COCCN1c1cc(C2(S(C)(=N)=O)CC2)nc(-c2ccnc3[nH]ccc23)n1 (stereo not given) + Cc1ccccc1N=Nc1ccc(NC(=O)c2ccnn2C)c(C)c1	%	53.3
Cn1ncnc1C1c2n[nH]c(=O)c3cc(F)cc(c23)NC1c1ccc(F)cc1 (stereo not given) + Cc1ccccc1N=Nc1ccc(NC(=O)c2ccnn2C)c(C)c1	%	44.2
